Here, each record is paired with measured GI50 data.
- Tested on: SF-295
- ASSAY_REMARKS: NCI tumour cell line growth inhibition, 48 h
Activity calls are given as the source filed them. Rule as the data show it: active = GI50 up to about 1.1 µM and inactive = higher.
MEASURED_QUANTITY: GI50

> print(dat)
                                   molecule  measured.quantity        reported.value
1  O=C1N(CN2CCOCC2)CN(CN2CCOCC2)C(=O)N1Cc1ccc(CN2C(=O)N(CN3CCOCC3)CN(CN3CCOCC3)C2=O)cc1               GI50   > 100 µM (inactive)
2       CCc1cc(C(=O)OC)cn1C(=N)c1ccc(Cl)cc1               GI50   > 100 µM (inactive)
3  CCCCCCCC(CC(=O)O)OC(=O)CC(CCCCCCC)OC1OC(C)C(O)C(O)C1OC1OC(C)C(O)C(O)C1O (stereo not given)               GI50   > 100 µM (inactive)
4     N#C/C(=C\c1ccc2ccccc2c1)C(=O)c1ccccc1               GI50  > 54.6 µM (inactive)
5                    CN(O)C(=O)c1cccc(Cl)c1               GI50   > 100 µM (inactive)

----------
Here, each record is paired with measured GI50 data.
- System: HOP-62
- ASSAY_REMARKS: NCI tumour cell line growth inhibition, 48 h
Activity calls are given as the source filed them. No stated cut-off is given here; in the data, active = GI50 up to about 1.1 µM and inactive = higher.
MEASURED_QUANTITY: GI50

> print(dat)
                                    compound        reported.value
 1           C(/C=N/N=C1NCCCN1)=N\N=C1NCCCN1   > 100 µM (inactive)
 2  COC(=O)c1cc(C)ccc1/C=C1\Cc2cccc(C)c2C1=O    31.2 µM (inactive)
 3  O=C(CCN1CCCCC1)N1CCc2c([nH]c3ccccc23)C1c1cccnc1 (stereo unspecified)  > 82.2 µM (inactive)
 4  CCC1C[N+]23CCc4c([nH]c5ccccc45)C2CC1CC3 (stereo unspecified)   > 100 µM (inactive)
 5  Cn1cnnc1Sc1c([N+](=O)[O-])nc(-c2ccc([N+](=O)[O-])cc2)n1C   > 100 µM (inactive)
 6  N#Cc1c(C#N)c(SSc2c(C#N)c(C#N)c(N)n2-c2ccccc2)n(-c2ccccc2)c1N    28.4 µM (inactive)
 7       N#C/C(C(=O)Nc1ccccc1)=C(/N)N1CCOCC1   > 100 µM (inactive)
 8  COc1cc(-c2c[nH]c3ccccc23)nc(-c2c[nH]c3ccccc23)n1    8.89 µM (inactive)
 9       CCc1cc(C(=O)OC)cn1C(=N)c1ccc(Cl)cc1   > 100 µM (inactive)
10  CCc1ncnc2cc(OCC3CO3)c(OC)cc12 (stereo unspecified)    3.18 µM (inactive)
11  C/C(=N\NC(N)=S)C(CN1CCCCC1)C(C1=C(O)c2ccccc2OC1)c1ccccc1 (stereo unspecified)      41 µM (inactive)

----------
- System: PC-3
- ASSAY_REMARKS: NCI tumour cell line growth inhibition, 48 h
Active and inactive are the calls of the source. Cut-off read from the data, not from the text of the source: active = GI50 up to about 1.1 µM and inactive = higher.
MEASURED_QUANTITY: GI50

> print(dat)
                                   compound       reported.value
1  COc1cc2c(cc1OCCCCOc1cc3c(cc1OC)C(=O)N1CCC[C@H]1C(=O)N3)N=C[C@@H]1CCCN1C2=O   6.05 µM (inactive)
2  COc1cc(NS(C)(=O)=O)ccc1NCc1c[nH]c2ccc3ncccc3c12   19.4 µM (inactive)
3  C1=CN2C[n+]3cccc(OCc4ccccc4)c3N=C2C(OCc2ccccc2)=C1   26.5 µM (inactive)
4  O=C(O)CN1CCCC(Cc2c[nH]c3ccccc23)C1 (stereo not given)  > 100 µM (inactive)
5  O=[N+]([O-])c1ccc(NN/N=N/c2ccc(-c3nc4ccccc4s3)cc2)c([N+](=O)[O-])c1   24.4 µM (inactive)

----------
- System: IGROV-1
- ASSAY_REMARKS: NCI tumour cell line growth inhibition, 48 h
Activity calls are given as the source filed them. Rule as the data show it: active = GI50 up to about 1.1 µM and inactive = higher.
Outcomes: active, inactive

> print(dat)
                                    molecule  classification
 1  CC(C)(C)[Si](C)(C)OCC1OC(n2cnc3c(=O)[nH]cnc32)CC1O (stereo not given)        inactive
 2  COc1ccc(C2c3c[nH]nc3CC3CCCCC32)cc1 (stereo not given)        inactive
 3  Cc1cc(C)c(S(=O)(=O)N2CCN(S(=O)(=O)c3c(C)cc(C)cc3C)OCCCCCO2)c(C)c1        inactive
 4  NC1C/C(=N\O)c2c(Cl)sc(Cl)c21 (stereo not given)        inactive
 5  O=C1c2cccc3cc4ccccc4c(c23)C(=O)N1CCNCCN1C(=O)c2cccc3cc4ccccc4c(c23)C1=O          active
 6  O=C(CCN1CCCCC1)N1CCc2c([nH]c3ccccc23)C1c1cccnc1 (stereo not given)        inactive
 7  O/N=C1/C(=C/c2ccc3c(c2)OCO3)CCCC1C(NO)c1ccc2c(c1)OCO2 (stereo not given)        inactive
 8              C/C(=N\c1cccc(Cl)c1)c1ccncc1        inactive
 9   COc1ccc(-c2cnoc2-c2ccc(OC)c(OC)c2)cc1OC        inactive
10  COc1ccc(N2C(=O)/C(=C/c3ccc(N(CCC#N)CCC#N)cc3)N=C2c2ccccc2)cc1        inactive

----------
- Tested on: SK-OV-3
- ASSAY_REMARKS: NCI tumour cell line growth inhibition, 48 h
Activity calls are given as the source filed them. Cut-off read from the data, not from the text of the source: active = GI50 up to about 1.1 µM and inactive = higher.
Here, each record is paired with measured GI50 data.
MEASURED_QUANTITY: GI50

> print(dat)
                                    molecule       reported.value
 1  CN1C(=O)C23CCCC2CC1(c1ccccc1)S3 (stereo not drawn)  > 100 µM (inactive)
 2  COc1ccc(CC(N)c2ccc(OC)cc2)cc1 (stereo not drawn)   71.4 µM (inactive)
 3    Cc1nc2c(o1)/C(=N\c1ccccc1)c1ccccc1C2=O   14.8 µM (inactive)
 4           C(/C=N/N=C1NCCCN1)=N\N=C1NCCCN1  > 100 µM (inactive)
 5       CC(C)(/C=N/O)/[N+]([O-])=C/c1ccccc1  > 100 µM (inactive)
 6  CC1=Nc2ccccc2NC(c2ccoc2)C1 (stereo not drawn)  > 100 µM (inactive)
 7  O=C(CCN1CCCCC1)N1CCc2c([nH]c3ccccc23)C1c1cccnc1 (stereo not drawn)  > 100 µM (inactive)
 8  CCO/C=N/C1=C(C#N)C(c2ccc(Cl)cc2)c2c(-c3ccccc3)nn(-c3ccccc3)c2O1 (stereo not drawn)   14.3 µM (inactive)
 9  CC(C)Cc1ccc(C(C)CC2=CCC(CN(C)C)C2=O)cc1 (stereo not drawn)   17.6 µM (inactive)
10  O=C1c2ccccc2C(=O)c2sc(Nc3cccc(Cl)c3)nc21   8.11 µM (inactive)
11             CC[N+](CC)(CCNCC(N)=O)CC(N)=O   > 10 µM (inactive)
12                  CCC1(CC)C(=O)NC(=O)NC1=S  > 100 µM (inactive)
13  Cc1ccc(S(=O)(=O)c2ccsc2NC(=O)C(F)(F)F)cc1   36.8 µM (inactive)
14  O=C1CS[C@@](CC(c2ccc(Cl)cc2)c2ccc(Cl)cc2)(c2ccc(Cl)cc2)N1     45 µM (inactive)
15           Nc1nc(Cl)cc(Nc2ccc3c(c2)CCC3)n1  > 100 µM (inactive)
16  CCOC(=O)CNC(=O)N(CC)C12CC3CC(CC(C3)C1)C2    123 µM (inactive)
17  Cc1cc(C)c(S(=O)(=O)N2CCN(S(=O)(=O)c3c(C)cc(C)cc3C)OCCCCCO2)c(C)c1  > 100 µM (inactive)
18  Oc1ccc(Cl)cc1C1=NC(NCN2CCN(CNC3=NC(c4ccccc4)CC(c4cc(Cl)ccc4O)=N3)CC2)=NC(c2ccccc2)C1 (stereo not drawn)   66.7 µM (inactive)
19  CCC(C)(C)c1ccc(OCCCCNC(=O)c2ccc3ccccc3c2O)c(C(C)(C)CC)c1     74 µM (inactive)
20      CCOC(=O)[C@@H]1C[C@H]1c1ccc(O)c(O)c1   43.1 µM (inactive)
21  CC(C)C(N)(C(=O)O)c1ccccc1 (stereo not drawn)  > 100 µM (inactive)
22                         S=C(S)NCCCn1ccnc1  > 100 µM (inactive)
23  CCN(CC)CCNc1ccc2ncn3c4ccc(O)cc4c(=O)c1c23    0.785 µM (active)

These entries and their values trace back to ChEMBL document CHEMBL1201862.
